cond: human, Liver
Entry flag: label 1 if Hepatotoxicity (choleostasis) reaches 1; label 0 if it does not.

>  <compound>
CC(C)n1c(/C=C/C(O)CC(O)CC(=O)O)c(-c2ccc(F)cc2)c2ccccc21 (centres undefined)

>  <qualitativeLabel>
label 1

$$$$
>  <compound>
CN(C)C(=N)N=C(N)N

>  <qualitativeLabel>
label 1

$$$$
>  <compound>
Cn1cnc([N+](=O)[O-])c1Sc1ncnc2nc[nH]c12

>  <qualitativeLabel>
label 1

$$$$
>  <compound>
CC(C)(C(=O)O)c1ccc(C(O)CCCN2CCC(C(O)(c3ccccc3)c3ccccc3)CC2)cc1 (centres undefined) [FEXOFENADINE]

>  <qualitativeLabel>
label 0

$$$$
>  <compound>
CC1CS(=O)(=O)CCN1/N=C/c1ccc([N+](=O)[O-])o1 (centres undefined)

>  <qualitativeLabel>
label 0

$$$$
>  <compound>
O=C(OCC(O)CO)c1ccccc1Nc1ccnc2cc(Cl)ccc12 (centres undefined)

>  <qualitativeLabel>
label 1

$$$$
>  <compound>
NNCCc1ccccc1

>  <qualitativeLabel>
label 0

$$$$
>  <compound>
CCOc1ccccc1OCC1CNCCO1 (centres undefined)

>  <qualitativeLabel>
label 0

$$$$
>  <compound>
CC(C)(C)NCC(O)c1ccc(O)c(CO)c1 (centres undefined)

>  <qualitativeLabel>
label 0

$$$$
>  <compound>
C1CNCCN1

>  <qualitativeLabel>
label 1

$$$$
>  <compound>
Cl[C@H]1[C@H](Cl)[C@@H](Cl)[C@@H](Cl)[C@H](Cl)[C@H]1Cl

>  <qualitativeLabel>
label 0

$$$$
>  <compound>
CC[C@H]1OC(=O)[C@H](C)C(=O)[C@H](C)[C@@H](O[C@@H]2O[C@H](C)C[C@H](N(C)C)[C@H]2O)[C@](C)(OC)C[C@@H](C)C(=O)[C@H](C)[C@H]2N(CCCCn3cnc(-c4cccnc4)c3)C(=O)O[C@]12C

>  <qualitativeLabel>
label 0

$$$$
>  <compound>
CSCC[C@H](N)C(=O)O

>  <qualitativeLabel>
label 0

$$$$
>  <compound>
NC(N)=Nc1nc(CSCCC(N)=NS(N)(=O)=O)cs1

>  <qualitativeLabel>
label 0

$$$$
>  <compound>
Cc1ncc(CO)c(CO)c1O

>  <qualitativeLabel>
label 0

$$$$

====

cond: human
recordedMetric: Hepatotoxicity (association with vascular disease)

>  <compound>
CCCCC1C(=O)N(c2ccccc2)N(c2ccc(O)cc2)C1=O (stereo not drawn) [OXYPHENBUTAZONE ANHYDROUS]

>  <measValue>
0

$$$$
>  <compound>
Nc1ncn([C@@H]2O[C@H](CO)[C@@H](O)[C@@H]2O)c(=O)n1 [FAZARABINE]

>  <measValue>
0

$$$$
>  <compound>
CCOC(=O)[C@H](CCc1ccccc1)N[C@@H](C)C(=O)N1[C@H](C(=O)O)C[C@@H]2CCC[C@@H]21

>  <measValue>
0

$$$$
>  <compound>
O=C(O)C(=O)O [OXALIC ACID]

>  <measValue>
0

$$$$
>  <compound>
CC=CC1=C(C(=O)O)N2C(=O)[C@@H](NC(=O)[C@H](N)c3ccc(O)cc3)[C@H]2SC1 [CEFPROZIL]

>  <measValue>
0

$$$$
>  <compound>
Cc1ccc(-c2nc3ccc(C)cn3c2CC(=O)N(C)C)cc1 [ZOLPIDEM]

>  <measValue>
0

$$$$
>  <compound>
CCN1CCN(C(=O)N[C@@H](C(=O)N[C@@H]2C(=O)N3C(C(=O)O)=C(CSc4nnnn4C)CS[C@H]23)c2ccc(O)cc2)C(=O)C1=O [CEFOPERAZONE]

>  <measValue>
0

$$$$
>  <compound>
CCCSc1ccc2nc(NC(=O)OC)[nH]c2c1 [ALBENDAZOLE]

>  <measValue>
0

$$$$
>  <compound>
CSc1ccc2c(c1)N(CCC1CCCCN1C)c1ccccc1S2 (stereo not drawn) [THIORIDAZINE]

>  <measValue>
0

$$$$
>  <compound>
CCC(=O)O[C@](Cc1ccccc1)(c1ccccc1)[C@H](C)CN(C)C [PROPOXYPHENE]

>  <measValue>
0

$$$$
>  <compound>
CC/C=C(\C(=O)N[C@@H]1C(=O)N2C(C(=O)OCOC(=O)C(C)(C)C)=C(COC(N)=O)CS[C@H]12)c1csc(N)n1

>  <measValue>
0

$$$$
>  <compound>
O=C(NCC1CCCCN1)c1cc(OCC(F)(F)F)ccc1OCC(F)(F)F (stereo not drawn) [FLECAINIDE]

>  <measValue>
0

$$$$
>  <compound>
O=C(O)c1ccccc1Nc1cccc(C(F)(F)F)c1 [FLUFENAMIC ACID]

>  <measValue>
0

$$$$
>  <compound>
C[C@@](Cc1ccc(O)c(O)c1)(NN)C(=O)O.O [CARBIDOPA]

>  <measValue>
0

$$$$
>  <compound>
Cc1c(N)nc([C@@H](CC(N)=O)NC[C@@H](N)C(N)=O)nc1C(=O)N[C@@H](C(=O)N[C@@H](C)[C@H](O)[C@@H](C)C(=O)N[C@H](C(=O)NCCc1nc(-c2nc(C(=O)NCCCN(C)CCCN(Cc3ccc(OCc4ccccc4)c(OCc4ccccc4)c3)Cc3ccc(OCc4ccccc4)c(OCc4ccccc4)c3)cs2)cs1)[C@@H](C)O)C(O[C@H]1O[C@@H](CO)[C@H](O)[C@@H](O)[C@H]1O[C@H]1O[C@@H](CO)[C@@H](O)[C@H](OC(N)=O)[C@@H]1O)c1c[nH]cn1 (stereo partly drawn)

>  <measValue>
0

$$$$
>  <compound>
CN1CCN(C(=O)OC2c3nccnc3C(=O)N2c2ccc(Cl)cn2)CC1 (stereo not drawn) [ZOPICLONE]

>  <measValue>
0

$$$$
>  <compound>
CN1CCC(=C2c3ccccc3CCc3sccc32)CC1 [PIZOTYLINE]

>  <measValue>
0

$$$$
>  <compound>
Cc1c(Cl)cccc1Nc1ccccc1C(=O)O [TOLFENAMIC ACID]

>  <measValue>
0

$$$$
>  <compound>
CO[C@@]1(NC(=O)CSC(F)F)C(=O)N2C(C(=O)O)=C(CSc3nnnn3CCO)CO[C@@H]21 [FLOMOXEF]

>  <measValue>
0

$$$$
>  <compound>
Cc1[nH]cnc1CSCCNc1ncc(Cc2ccc3c(c2)OCO3)c(=O)[nH]1 [OXMETIDINE]

>  <measValue>
0

$$$$
>  <compound>
FC(F)OC(F)(F)C(F)Cl (stereo not drawn)

>  <measValue>
0

$$$$
>  <compound>
CO[C@@H]1[C@@H](N)[C@@H](O[C@H]2[C@H](Oc3cccc4c(O)c5c(=O)oc6ccc(C)c7c(=O)oc(c34)c5c67)O[C@H](C)[C@H](O)[C@]2(C)O)O[C@H](C)[C@@H]1O [ELSAMITRUCIN]

>  <measValue>
0

$$$$
>  <compound>
CN(C)CCCN1c2ccccc2Sc2ccccc21 [PROMAZINE]

>  <measValue>
0

$$$$
>  <compound>
C1CCC(C(CC2CCCCN2)C2CCCCC2)CC1 (stereo not drawn) [PERHEXILINE]

>  <measValue>
0

$$$$
>  <compound>
N=C(N)c1ccc(OCCCCCOc2ccc(C(=N)N)cc2)cc1 [PENTAMIDINE]

>  <measValue>
0

$$$$
>  <compound>
O=C1CN(/N=C/c2ccc(-c3ccc([N+](=O)[O-])cc3)o2)C(O)=N1 [DANTROLENE]

>  <measValue>
0

$$$$
>  <compound>
C#CC(O)(/C=C/Cl)CC (stereo not drawn) [ETHCHLORVYNOL]

>  <measValue>
0

$$$$
>  <compound>
COc1cc(NS(=O)(=O)c2ccc(N)cc2)nc(OC)n1 [SULFADIMETHOXINE]

>  <measValue>
0

$$$$
>  <compound>
CCCCc1nc(Cl)c(CO)n1Cc1ccc(-c2ccccc2-c2nn[nH]n2)cc1 [LOSARTAN]

>  <measValue>
0

$$$$
>  <compound>
O=c1n(CC2CO2)c(=O)n(CC2CO2)n1CC1CO1 (stereo not drawn) [ANAXIRONE]

>  <measValue>
0

$$$$
>  <compound>
c1cnc(N2CCN(Cc3ccc4c(c3)OCO4)CC2)nc1 [PIRIBEDIL]

>  <measValue>
0

$$$$
>  <compound>
C[C@]1(O)CC[C@H]2[C@@H]3CCC4=CC(=O)CC[C@@H]4[C@H]3CC[C@@]21C [NORMETHANDRONE]

>  <measValue>
0

$$$$
>  <compound>
CC(C)NNC(=O)c1ccncc1 [IPRONIAZID]

>  <measValue>
0

$$$$

====

methodSummary: Highest frequency of moderate liver toxicity observed during clinical trials, expressed as a percentage. [column '% BIOL' in source]
cond: human

>  <molecule>
CO/N=C(\C(=O)N[C@@H]1C(=O)N2C(C(=O)O)=CCS[C@H]12)c1csc(N)n1

>  <Hepatotoxicity (moderate) / %>
35

$$$$
>  <molecule>
CC(O)(CS(=O)(=O)c1ccc(F)cc1)C(=O)Nc1ccc(C#N)c(C(F)(F)F)c1 (stereo unspecified) [BICALUTAMIDE]

>  <Hepatotoxicity (moderate) / %>
6

$$$$
>  <molecule>
NC[C@H]1O[C@H](O[C@H]2[C@H](O)[C@@H](O[C@H]3O[C@H](CO)[C@@H](O)[C@H](N)[C@H]3O)[C@H](N)C[C@@H]2N)[C@H](N)C[C@@H]1O

>  <Hepatotoxicity (moderate) / %>
23.5

$$$$
>  <molecule>
CN[C@@H]1[C@@H](O)[C@@H](O[C@@H]2[C@@H](O)[C@H](O[C@H]3O[C@H](CN)[C@@H](O)[C@H](O)[C@H]3O)[C@@H](N)C[C@H]2NC(=O)[C@@H](O)CN)OC[C@]1(C)O

>  <Hepatotoxicity (moderate) / %>
30

$$$$
>  <molecule>
CCC(=O)O[C@@H]1CC(=O)O[C@H](C)C/C=C/C=C/[C@H](O)[C@H](C)C[C@H](CC=O)[C@H](O[C@@H]2O[C@H](C)[C@@H](O[C@H]3C[C@@](C)(O)[C@@H](OC(=O)CC)[C@H](C)O3)[C@H](N(C)C)[C@H]2O)[C@H]1OC

>  <Hepatotoxicity (moderate) / %>
2.3

$$$$
>  <molecule>
CC(C)NNC(=O)c1ccncc1

>  <Hepatotoxicity (moderate) / %>
30

$$$$
